Record form. Attribute: kcat. Fill in for each entry.
Substrate: Nc1nc2nc[nH]c2c(=O)[nH]1
Assay: purified protein
Assay type: biochemical, Zymomonas mobilis
Conditions: 15 µM E. coli tRNA(Tyr), 200 mM HEPES pH 7.3, 20 mM MgCl2, 37°C, labelled compound
Respond numerically; units are s⁻¹ and should not be typed.

# kcat lookup, item Z. mobilis Tgt ("wild type" Tgt = Tgt(Tyr106Phe)) (Zymomonas mobilis subsp. mobilis ZM4 = ATCC 31821; Y106F) (protein, recombinant from pET9d-ZM-Y106F in E. coli BL21(DE3)/pLysS, purified; homodimer; all variants including "wild type" carry Tyr106Phe) VEATAQETDRPRFSFSIAAREGKARTGTIEMKRGVIRTPAFMPVGTAATVKALKPETVRATGADIILGNTYHLMLRPGAERIAKLGGLHSFMGWDRPILTDSGGFQVMSLSSLTKQSEEGVTFKSHLDGSRHMLSPERSIEIQHLLGSDIVMAFDECTPYPATPSRAASSMERSMRWAKRSRDAFDSRKEQAENAALFGIQQGSVFENLRQQSADALAEIGFDGYAVGGLAVGEGQDEMFRVLDFSVPMLPDDKPHYLMGVGKPDDIVGAVERGIDMFDCVLPTRSGRNGQAFTWDGPINIRNARFSEDLTPLDSECHCAVCQKWSRAYIHHLIRAGEILGAMLMTEHNIAFYQQLMQKIRDSISEGRFSQFAQDFRARYFARNS 0.0558

Lookup Z. mobilis Tgt ("wild type" Tgt = Tgt(Tyr106Phe)) (Zymomonas mobilis subsp. mobilis ZM4 = ATCC 31821; C158V/Y106F) (protein, recombinant from pET9d-ZM-Y106F in E. coli BL21(DE3)/pLysS, purified; homodimer; all variants including "wild type" carry Tyr106Phe) VEATAQETDRPRFSFSIAAREGKARTGTIEMKRGVIRTPAFMPVGTAATVKALKPETVRATGADIILGNTYHLMLRPGAERIAKLGGLHSFMGWDRPILTDSGGFQVMSLSSLTKQSEEGVTFKSHLDGSRHMLSPERSIEIQHLLGSDIVMAFDEVTPYPATPSRAASSMERSMRWAKRSRDAFDSRKEQAENAALFGIQQGSVFENLRQQSADALAEIGFDGYAVGGLAVGEGQDEMFRVLDFSVPMLPDDKPHYLMGVGKPDDIVGAVERGIDMFDCVLPTRSGRNGQAFTWDGPINIRNARFSEDLTPLDSECHCAVCQKWSRAYIHHLIRAGEILGAMLMTEHNIAFYQQLMQKIRDSISEGRFSQFAQDFRARYFARNS 0.0275

Next: Z. mobilis Tgt ("wild type" Tgt = Tgt(Tyr106Phe)) (Zymomonas mobilis subsp. mobilis ZM4 = ATCC 31821; C158V/V233G/Y106F) (protein, recombinant from pET9d-ZM-Y106F in E. coli BL21(DE3)/pLysS, purified; homodimer; all variants including "wild type" carry Tyr106Phe) VEATAQETDRPRFSFSIAAREGKARTGTIEMKRGVIRTPAFMPVGTAATVKALKPETVRATGADIILGNTYHLMLRPGAERIAKLGGLHSFMGWDRPILTDSGGFQVMSLSSLTKQSEEGVTFKSHLDGSRHMLSPERSIEIQHLLGSDIVMAFDEVTPYPATPSRAASSMERSMRWAKRSRDAFDSRKEQAENAALFGIQQGSVFENLRQQSADALAEIGFDGYAVGGLAGGEGQDEMFRVLDFSVPMLPDDKPHYLMGVGKPDDIVGAVERGIDMFDCVLPTRSGRNGQAFTWDGPINIRNARFSEDLTPLDSECHCAVCQKWSRAYIHHLIRAGEILGAMLMTEHNIAFYQQLMQKIRDSISEGRFSQFAQDFRARYFARNS 0.0006

Please do the same for Z. mobilis Tgt ("wild type" Tgt = Tgt(Tyr106Phe)) (Zymomonas mobilis subsp. mobilis ZM4 = ATCC 31821; V233G/Y106F) (protein, recombinant from pET9d-ZM-Y106F in E. coli BL21(DE3)/pLysS, purified; homodimer; all variants including "wild type" carry Tyr106Phe) VEATAQETDRPRFSFSIAAREGKARTGTIEMKRGVIRTPAFMPVGTAATVKALKPETVRATGADIILGNTYHLMLRPGAERIAKLGGLHSFMGWDRPILTDSGGFQVMSLSSLTKQSEEGVTFKSHLDGSRHMLSPERSIEIQHLLGSDIVMAFDECTPYPATPSRAASSMERSMRWAKRSRDAFDSRKEQAENAALFGIQQGSVFENLRQQSADALAEIGFDGYAVGGLAGGEGQDEMFRVLDFSVPMLPDDKPHYLMGVGKPDDIVGAVERGIDMFDCVLPTRSGRNGQAFTWDGPINIRNARFSEDLTPLDSECHCAVCQKWSRAYIHHLIRAGEILGAMLMTEHNIAFYQQLMQKIRDSISEGRFSQFAQDFRARYFARNS as well. 0.0046
